Target: KDM5A (Homo sapiens, UniProt P29375)
Construct: C-terminal FLAG-tagged KDM5A^1-1090 was purchased from BPS Biosciences; FLAG (C); purchased BPS Biosciences
Sequence (P29375 1-1090): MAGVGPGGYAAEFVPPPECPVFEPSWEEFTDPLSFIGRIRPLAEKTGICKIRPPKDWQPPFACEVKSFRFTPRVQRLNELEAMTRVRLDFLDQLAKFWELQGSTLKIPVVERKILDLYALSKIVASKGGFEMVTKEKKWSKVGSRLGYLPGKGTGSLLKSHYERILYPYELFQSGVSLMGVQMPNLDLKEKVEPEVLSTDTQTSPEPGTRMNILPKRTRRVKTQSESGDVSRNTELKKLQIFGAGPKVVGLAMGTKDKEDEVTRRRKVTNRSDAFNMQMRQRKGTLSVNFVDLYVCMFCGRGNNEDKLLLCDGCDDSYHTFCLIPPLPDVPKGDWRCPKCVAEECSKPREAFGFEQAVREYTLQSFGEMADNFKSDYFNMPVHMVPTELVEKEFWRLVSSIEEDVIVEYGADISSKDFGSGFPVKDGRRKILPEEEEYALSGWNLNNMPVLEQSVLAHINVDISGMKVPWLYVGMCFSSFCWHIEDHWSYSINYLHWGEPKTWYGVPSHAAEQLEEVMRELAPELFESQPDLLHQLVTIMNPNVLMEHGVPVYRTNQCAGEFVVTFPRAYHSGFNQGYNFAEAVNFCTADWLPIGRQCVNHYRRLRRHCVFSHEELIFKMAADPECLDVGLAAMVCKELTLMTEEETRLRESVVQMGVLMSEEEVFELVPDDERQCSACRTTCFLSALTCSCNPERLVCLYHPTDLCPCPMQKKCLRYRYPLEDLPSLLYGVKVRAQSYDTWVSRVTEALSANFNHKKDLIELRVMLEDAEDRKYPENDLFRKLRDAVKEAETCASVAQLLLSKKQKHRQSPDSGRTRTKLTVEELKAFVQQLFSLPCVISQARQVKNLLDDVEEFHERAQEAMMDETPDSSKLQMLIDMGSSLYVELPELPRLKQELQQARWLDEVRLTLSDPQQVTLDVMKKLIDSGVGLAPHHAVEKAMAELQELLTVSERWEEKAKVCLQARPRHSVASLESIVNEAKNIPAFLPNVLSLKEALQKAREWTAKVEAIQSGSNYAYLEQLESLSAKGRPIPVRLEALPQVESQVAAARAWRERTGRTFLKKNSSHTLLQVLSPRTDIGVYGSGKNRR
Assay: KDM5A Assay (SAMDI mass spectrometry demethylase assay)
Assay type: biochemical
Details: C-terminal FLAG-tagged KDM5A 1-1090; class symbols; read-out: 5A IC50
pIC50: −log10 of the molar value.
property-label: pIC50

Guide cases for pIC50, answers given:
compound | target-system | pIC50
Cc1nn(C2CCCNCC2)cc1Nc1cnccc1C(=O)O (single isomer, unassigned) [Compound 116] | KDM5A (Homo sapiens, UniProt P29375) | 6.00 to 7.00
Cc1c(Nc2cnccc2C(=O)O)cnn1C1CCCN(C2CCC2)CC1 (single isomer, unassigned) [Compound 119] | KDM5A (Homo sapiens, UniProt P29375) | 5.00 to 6.00
Cn1cc(-c2ccccc2)c(Nc2cnccc2C(=O)O)n1 [Compound 3] | KDM5A (Homo sapiens, UniProt P29375) | 5.00 to 6.00
N[C@H]1CC[C@@H](n2nc(-c3ccccc3)cc2Nc2cnccc2C(=O)O)CC1 [Compound 37] | KDM5A (Homo sapiens, UniProt P29375) | 5.00 to 6.00
COC(=O)c1ccncc1Nc1cnn(C2CCN(C3CCC3)CC2)c1C [Compound 95] | KDM5A (Homo sapiens, UniProt P29375) | 4.00 to 5.00
Cc1n[nH]c(C)c1Nc1cnccc1C(=O)O [Compound 16] | KDM5A (Homo sapiens, UniProt P29375) | 4.00 to 5.00
Cc1c(Nc2cnccc2C(=O)O)cnn1C1CCN(CC2CC2)CC1 [Compound 90] | KDM5A (Homo sapiens, UniProt P29375) | 5.00 to 6.00
O=C(O)c1ccncc1Nc1cn(CCN2CCC(F)(F)CC2)nc1-c1ccccc1 [Compound 17] | KDM5A (Homo sapiens, UniProt P29375) | 6.00 to 7.00

Fill in pIC50 for each of the 4 compounds listed.
1. CCn1nc(-c2ccccc2)cc1Nc1cnccc1C(=O)O [Compound 36]
2. Cc1c(Nc2cnccc2C(=O)O)cnn1C1CCN(C2CN(C)C2)CC1 [Compound 92]
3. Cc1c(Nc2cnccc2C(=O)O)cnn1C1CCN(CC(F)(F)F)CC1 [Compound 100]
4. CN(C)CCn1ncc(-c2ccccc2)c1Nc1cnccc1C(=O)O [Compound 65]

1: 7.00 to 9.00; 2: 5.00 to 6.00; 3: 5.00 to 6.00; 4: 5.00 to 6.00

Fill in pIC50 for each of the 4 compounds listed.
1. O=C(O)c1ccncc1Nc1c(-c2ccccc2)cnn1-c1ccccc1 [Compound 43]
2. O=C(O)c1ccncc1Nc1cc(-c2ccccc2)nn1-c1ccccc1 [Compound 21]
3. CN1CCC(n2cc(-c3ccccc3)c(Nc3cnccc3C(=O)O)n2)CC1 [Compound 130]
4. Cn1nc(-c2cccc(Cl)c2)cc1Nc1cnccc1C(=O)O [Compound 25]

["4.00 to 5.00", "6.00 to 7.00", "7.00 to 9.00", "7.00 to 9.00"]
